These measurements were taken from patent US8211429.

target: human NRP1 (human, UniProt O14786); test: competition phage ELISA
PROPERTY: pIC50
// pIC50 is dimensionless: -log10 of concentration (M)

Fill in pIC50 for record YW107.4.59 (antibody, V domains shown) VH: EVQLVESGGGLVQPGGSLRLSCAASGFTFSSYAMSWVRQAPGKGLEWVSQISPAGGYTNYADSVKGRFTISADTSKNTAYLQMNSLRAEDTAVYYCARELPYYRMSKVMDVWGQGTLVTVSS VL: DIQMTQSPSSLSASVGDRVTITCRASQRIHSYLAWYQQKPGKAPKLLIYGASSRASGVPSRFSGSGSGTDFTLTISSLQPEDFATYYCQQYYISPLTFGQGTKVEIKR
8.74

Respond only with pIC50 recorded for YW107.4 (antibody, V domains shown) VH: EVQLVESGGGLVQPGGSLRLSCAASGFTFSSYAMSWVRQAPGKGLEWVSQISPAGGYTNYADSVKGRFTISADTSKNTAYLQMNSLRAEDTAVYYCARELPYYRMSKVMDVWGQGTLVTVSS VL: DIQMTQSPSSLSASVGDRVTITCRASQSISSYLAWYQQKPGKAPKLLIYGASSRASGVPSRFSGSGSGTDFTLTISSLQPEDFATYYCQQYYSSPLTFGQGTKVEIKR
8.21

Provide pIC50 value for the following binder: YW107.4.55 (antibody, V domains shown) VH: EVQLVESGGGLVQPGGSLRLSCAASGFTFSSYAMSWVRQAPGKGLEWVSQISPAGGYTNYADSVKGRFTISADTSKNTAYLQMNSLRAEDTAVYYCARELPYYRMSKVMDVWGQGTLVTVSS VL: DIQMTQSPSSLSASVGDRVTITCRASQLTHSYLAWYQQKPGKAPKLLIYGASSRASGVPSRFSGSGSGTDFTLTISSLQPEDFATYYCQQYYSSPLTFGQGTKVEIKR
9.03

Provide one value: measured pIC50 of YW107.4.41 (antibody, V domains shown) VH: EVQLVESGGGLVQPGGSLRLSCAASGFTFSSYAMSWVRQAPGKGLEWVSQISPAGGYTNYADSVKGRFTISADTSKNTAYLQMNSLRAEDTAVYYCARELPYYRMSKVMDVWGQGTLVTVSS VL: DIQMTQSPSSLSASVGDRVTITCRASQWTHSYLAWYQQKPGKAPKLLIYGASRLESGVPSRFSGSGSGTDFTLTISSLQPEDFATYYCQQYFISPHTFGQGTKVEIKR
9.37

---
Please report pIC50 for the following binder: YW107.4.85 (antibody, V domains shown) VH: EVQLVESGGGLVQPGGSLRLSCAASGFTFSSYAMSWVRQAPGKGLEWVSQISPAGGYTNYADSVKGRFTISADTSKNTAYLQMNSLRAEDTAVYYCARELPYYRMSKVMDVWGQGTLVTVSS VL: DIQMTQSPSSLSASVGDRVTITCRASQYISSYLAWYQQKPGKAPKLLIYGASSGESGVPSRFSGSGSGTDFTLTISSLQPEDFATYYCQQYIISPITFGQGTKVEIKR
9.36
